Numbers sourced from ChEMBL document CHEMBL2040715.

- TARGET SYSTEM: Cytochrome P450 2D6 (Homo sapiens)
- Sequence (P10635 whole entry): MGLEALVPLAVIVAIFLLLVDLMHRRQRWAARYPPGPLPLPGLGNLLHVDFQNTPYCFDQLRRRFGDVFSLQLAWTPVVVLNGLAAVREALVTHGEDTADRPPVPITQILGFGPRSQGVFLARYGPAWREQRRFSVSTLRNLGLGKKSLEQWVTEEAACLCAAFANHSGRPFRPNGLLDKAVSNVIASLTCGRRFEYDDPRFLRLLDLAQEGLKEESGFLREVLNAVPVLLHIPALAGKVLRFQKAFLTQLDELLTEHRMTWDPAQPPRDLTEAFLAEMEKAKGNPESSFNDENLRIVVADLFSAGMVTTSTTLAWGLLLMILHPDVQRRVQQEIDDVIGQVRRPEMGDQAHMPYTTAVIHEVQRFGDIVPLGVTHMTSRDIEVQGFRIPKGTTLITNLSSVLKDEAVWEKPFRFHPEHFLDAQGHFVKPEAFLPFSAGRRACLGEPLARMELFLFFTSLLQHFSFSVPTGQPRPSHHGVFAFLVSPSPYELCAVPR
PARAMETER MEASURED: IC50

Report IC50 for O=C(O)/C(O)=C/C(=O)c1cc(Cc2ccc(F)cc2F)cn(Cc2ccccc2F)c1=O > 200 µM

---

- TARGET SYSTEM: Human immunodeficiency virus type 1 integrase (Human immunodeficiency virus 1, UniProt Q7ZJM1)
- Sequence (Q7ZJM1 whole entry): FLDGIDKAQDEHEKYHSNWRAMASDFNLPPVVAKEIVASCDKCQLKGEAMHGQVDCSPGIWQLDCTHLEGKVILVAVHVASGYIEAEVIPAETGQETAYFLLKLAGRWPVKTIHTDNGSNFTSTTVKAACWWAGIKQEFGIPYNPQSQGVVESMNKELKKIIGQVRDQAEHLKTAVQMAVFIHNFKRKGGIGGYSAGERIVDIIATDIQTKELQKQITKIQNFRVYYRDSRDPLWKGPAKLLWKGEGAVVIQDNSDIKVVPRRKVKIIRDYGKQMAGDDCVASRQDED
Assignment: determine reported pIC50 for the given molecules.
Answers are plain numbers, as −log10 of the molar value.

> print(dat)
                         chemical.structure  parameter.measured  reported.measurement
1  O=C(O)/C(O)=C/C(=O)c1cc(Cc2ccccc2)cn(Cc2ccccc2)c1=O               pIC50                  7.15

# context switch: different molecule, same pIC50
Report pIC50 for O=C(O)/C(O)=C/C(=O)c1cc(Cc2ccc(F)cc2F)cn(Cc2ccccc2F)c1=O 8.22
